PHOSPHORUS listing for selected compounds.
species on record: Rattus norvegicus; assay: DrugMatrix - Regimen: Daily Repeat; type: toxicity, organism-based, Sprague-Dawley; design: regimen Daily Repeat, gender Male, age 6-8 weeks; details: in vivo, po, 0 mg/kg, 120 h, tissue Plasma, route oral GAVAGE, dose level Control, time 5 day, vehicle 100 % WATER
Give a bare numeral; the unit mg/dL is implied.

Worked cases, answers included:
compound | PHOSPHORUS, mg/dL
NC(=O)c1cccnc1 [NIACINAMIDE] | 11.72
CCN(CC)CCOC(=O)C1(C2CCCCC2)CCCCC1 | 11.28
O=c1[nH]c(=O)n(C2CCCO2)cc1F (stereo unspecified) | 11.83

Challenge: What does the data say about its PHOSPHORUS? Entry: C#Cc1cccc(Nc2ncnc3cc(OCCOC)c(OCCOC)cc23)c1
Response given: 11.07

Challenge: Consider the compound CN(C)CCC=C1c2ccccc2CCc2ccccc21 and give its measured PHOSPHORUS.
Response given: 11.65

Challenge: Any idea what its PHOSPHORUS is? The compound is CCCC(C)C1(CC)C(=O)NC(=O)NC1=O (stereo unspecified)
Response given: 10.13

Values from ChEMBL document CHEMBL3885881
